- Tested on: MCC-26
- Method Summary: qHTS assay to identify novel small-molecules to repurpose for Merkel cell carcinoma treatment (AID 1296009); also: nearly all actives have a fitted effect of over 60% in size
- Assay Conditions: MCC and control cell lines, CellTiter-Glo viability, 72 h; series mostly up to 46 µM
- Text: MCC is a rare and aggressive neuroendocrine skin cancer with limited treatment options. Approximately 80% of MCCs have the Merkel cell polyomavirus (MCPyV) DNA integrated into the host genome (virus-positive: VP-MCC) and viral oncogenes drive oncogenesis. The remaining MCCs are virus-negative (VN-MCC) and are caused by UV mutagenesis. […] Using cell viability as a readout (CellTiter-Glo assay) we found both overlapping and distinct drugs that can be repurposed for the treatment of VP-MCC and VN-MCC. […]
Records with an inconclusive call do not appear. Activity calls are given as the source filed them. Calls follow the shape of the dose curve; as a rule, active = well fitted inhibition curve with a large enough effect; inconclusive = small, poorly fitted or top-dose-only effect; inactive = flat fitted curve, though single readings scatter.
Hi! Could you answer with just one of these? active, inactive

Exercise: Any idea what this test logged for O=C(O)CCCCCCNC1c2ccccc2CCc2ccccc21 ?
Solution: inactive

Exercise: Please indicate how the test categorized COc1ccc(C(=O)N2CCCC2=O)cc1 .
Solution: inactive

Exercise: Fill in: this test's call for CCOC(=O)C1(c2ccccc2)CCN(CCc2ccc(N)cc2)CC1 is ___
Solution: inactive

Exercise: Would you mind telling me which call this test gave CCN(Cc1ccc(Cl)nc1)/C(=C/[N+](=O)[O-])NC ?
Solution: inactive

Exercise: // return assay outcome for C[C@]12Cc3nonc3C[C@@H]1CC[C@@H]1[C@@H]2CC[C@@]2(C)[C@H]1CC[C@]2(C)O
Solution: inactive

Exercise: What call does the record list for CCOC(=O)C(c1c(O)c2ccccc2oc1=O)c1c(O)c2ccccc2oc1=O ?
Solution: inactive

Exercise: How did this test come out for C[N+]1(C)[C@@H]2CC[C@H]1CC(OC(=O)C(CO)c1ccccc1)C2 (stereo partly drawn) ?
Solution: inactive

Exercise: Please share the test call associated with CN(C)C(=S)SSC(=S)N(C)C .
Solution: active

Exercise: Please let me know the test result on file for C[C@@H]1CC[C@H]2[C@@H](C)C(=O)O[C@@H]3O[C@@]4(C)CC[C@@H]1[C@]32OO4 .
Solution: inactive

Exercise: Returns: the outcome recorded for Oc1ccc([C@H]2CNCc3c2ccc(O)c3O)cc1O in this assay.
Solution: inactive

Exercise: Please share the test call associated with Cc1ccc(N=CN(C)C=Nc2ccc(C)cc2C)c(C)c1 .
Solution: inactive

Exercise: Recorded test call requested for CC(Cc1ccccc1)NCc1ccccc1Cl (stereo not drawn)
Solution: inactive

Exercise: Outcome? CCCC[N+]1(C)[C@@H]2CC(OC(=O)[C@H](CO)c3ccccc3)C[C@H]1[C@@H]1O[C@@H]12 (stereo partly drawn)
Solution: inactive

Exercise: What outcome does the record of this test show for CCCN(CCC)CCc1c[nH]c2ccccc12 ?
Solution: inactive

Exercise: Status in this test for CNC(=O)NC(O)C(Cl)(Cl)Cl (stereo not drawn) ?
Solution: inactive

Exercise: GET /call?item= O=C(N[C@@H]1N=C(c2ccccc2F)c2cccc3c2N(CC3)C1=O)c1cc2ccccc2[nH]1 returns the recorded outcome of this test.
Solution: inactive

Exercise: Hi, sorry to bother you, what did the test record for CN1CCC(N(Cc2ccccc2)c2ccccc2)CC1 ?
Solution: inactive

Exercise: Please indicate how the test categorized Cc1c(Cl)c(=O)oc2cc(OP(=O)(OCCCl)OCCCl)ccc12 .
Solution: inactive

Exercise: Tell me the assay call for CC(C)=CCN1CC[C@@]2(C)c3cc(O)ccc3C[C@@H]1[C@@H]2C please.
Solution: inactive

Exercise: I'd appreciate the recorded outcome for COc1cc(C[C@@H](C)N)c(OC)cc1Br from this test.
Solution: inactive

Exercise: Please state the recorded outcome for this compound: CC(CC(C(N)=O)(c1ccccc1)c1ccccc1)N(C)C (stereo not drawn)
Solution: inactive

Exercise: Dear colleague, could you share the recorded outcome for Nc1ccccc1C(=O)OCC(O)CO (stereo not drawn) when you have a moment?
Solution: inactive

Exercise: For this compound, state the assay outcome: CC(C)(C)OC(=O)c1ncn2c1[C@@H]1CCCN1C(=O)c1c(Br)cccc1-2
Solution: inactive
